subject-of-test: human mGlu2 receptor (Homo sapiens)
Sequence (Q14416 19-872): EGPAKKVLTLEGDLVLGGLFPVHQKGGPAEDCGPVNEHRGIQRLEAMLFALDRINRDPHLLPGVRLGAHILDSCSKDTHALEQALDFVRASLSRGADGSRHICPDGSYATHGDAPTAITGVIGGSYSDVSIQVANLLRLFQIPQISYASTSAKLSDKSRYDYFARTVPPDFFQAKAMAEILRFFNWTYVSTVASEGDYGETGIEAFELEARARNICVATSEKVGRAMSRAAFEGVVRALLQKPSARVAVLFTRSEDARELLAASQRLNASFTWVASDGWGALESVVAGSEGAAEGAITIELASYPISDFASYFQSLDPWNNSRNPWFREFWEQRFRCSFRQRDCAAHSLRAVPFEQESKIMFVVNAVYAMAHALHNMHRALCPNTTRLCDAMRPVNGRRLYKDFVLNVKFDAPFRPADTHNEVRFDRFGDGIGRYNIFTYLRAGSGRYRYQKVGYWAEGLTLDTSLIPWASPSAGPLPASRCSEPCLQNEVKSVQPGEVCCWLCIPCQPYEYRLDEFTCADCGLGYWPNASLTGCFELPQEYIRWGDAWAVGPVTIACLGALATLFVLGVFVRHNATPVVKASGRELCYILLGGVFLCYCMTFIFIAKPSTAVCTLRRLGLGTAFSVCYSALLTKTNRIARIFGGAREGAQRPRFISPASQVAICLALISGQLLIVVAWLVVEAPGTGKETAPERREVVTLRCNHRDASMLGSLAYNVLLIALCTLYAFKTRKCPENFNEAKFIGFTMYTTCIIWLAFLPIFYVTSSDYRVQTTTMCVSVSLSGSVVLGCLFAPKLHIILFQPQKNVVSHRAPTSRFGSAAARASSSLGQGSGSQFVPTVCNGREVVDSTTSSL
protocol: FLIPR intracellular Ca2+ assay, potentiation of glutamate response in HEK293 clone expressing mGlu2 receptor, rGLAST and Galpha16
experimental-parameters: 1 μM glutamate added ten minutes after test compound, HEK293 cells with human mGlu2, rGLAST, Galpha16, read-out: EC50 values of potentiation effect to glutamate
Examples of compounds with documented EC50 follow.

> print(dat)
                                        mol            result
1               CCCC(=O)c1ccc(NCc2ccco2)cc1  1000 to 10000 nM
2  CCCN1Cc2cc(OCc3c[nH]nc3-c3cccc(C(F)(F)F)c3)ccc2C1=O         < 1000 nM
3  CC(=O)c1ccc(OCc2c[nH]nc2-c2ccc(C(F)(F)F)cc2)cc1  1000 to 10000 nM

[in] Form field: reported EC50 of CCCC(=O)c1ccc(NCc2c(C)n[nH]c2C)cc1
[out] 1000 to 10000 nM

[in] CCCC(=O)c1cccc(NCc2cccnc2)c1 , same question.
[out] 1000 to 10000 nM
